Hello, the source for this data is patent US9890138B2, in case you need it.

# System under test: human 5-HT4(a) (Homo sapiens)
# Sequence (Q13639 1-387 isoform Q13639-2): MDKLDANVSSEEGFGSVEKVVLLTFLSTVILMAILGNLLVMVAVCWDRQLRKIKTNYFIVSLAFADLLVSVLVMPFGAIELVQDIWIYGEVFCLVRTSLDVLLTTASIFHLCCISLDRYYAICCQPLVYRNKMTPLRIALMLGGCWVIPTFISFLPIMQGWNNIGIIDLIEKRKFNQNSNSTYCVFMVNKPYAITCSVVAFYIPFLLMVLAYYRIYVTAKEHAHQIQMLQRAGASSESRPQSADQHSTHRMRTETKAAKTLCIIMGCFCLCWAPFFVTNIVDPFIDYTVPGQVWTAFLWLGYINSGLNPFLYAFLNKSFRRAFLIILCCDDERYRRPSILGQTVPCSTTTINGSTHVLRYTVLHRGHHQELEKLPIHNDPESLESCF
# Assay text: Evaluation of agonistic activity in CHO-K1 cells expressing human 5-HT4(a) (GeneBlAzer HTR4-CRE-bla CHO-K1, beta-lactamase reporter)
# Test conditions: CHO-K1 cells stably expressing human 5-HT4(a)
pEC50: −log10 of the molar value. Counter-ions that a name gives are not always drawn.
Observed property: pEC50

P = CCCc1cc(N2CC[C@H](NC(C)=O)C2)nc(Nc2ccc(C)c(N)c2)n1 [Example 493, hydrochloride]
Q = CCCc1cc(N2CC[C@H](NC(C)CC)C2)nc(Nc2cccc(C#N)c2)n1 (stereo partly shown)
R = CCCCc1cc(N2CC[C@H](N(CC)CC)C2)nc(Nc2ccc(C)c(C#N)c2)n1
S = CCCc1cc(N2CC[C@H](NCc3ccc(C(F)(F)F)cc3)C2)nc(Nc2cccc(C#N)c2)n1
T = CCCc1cc(N2CCC[C@H]2C)nc(Nc2ccc(F)c([N+](=O)[O-])c2)n1
Q: Sort the entries above by pEC50, largest first. Field: ranking. Enter the labels in the order requested.
A: Q, P, T, R, S

a = CCCc1cc(N2CC[C@H](N)C2)nc(Nc2ccc(C)c(Cl)c2)n1 [Example 349, dihydrochloride]
b = CCCc1cc(N2CC[C@H](NC(=O)C/C=C/c3ccccc3)C2)nc(Nc2cccc(C#N)c2)n1
Q: Please let me know which one, a or b , has a lower measured pEC50 value. Response format: the label of the selected entry.
A: b

----------
# System under test: human 5-HT4(a) (Homo sapiens)
# Construct: host or cells: GeneBlAzer HTR4-CRE-bla CHO-K1 cells
# Assay text: Evaluation of agonistic activity in CHO-K1 cells expressing human 5-HT4(a) (GeneBlAzer HTR4-CRE-bla CHO-K1, beta-lactamase reporter)
# Format: cell-based
# Test conditions: CHO-K1 cells stably expressing human 5-HT4(a)
Observed property: EC50 (nM)

Example cases with answers are listed next.
>>> print(df.to_string())
                                   compound              system_under_test  unit_abbrev  number
0  CCCc1cc(N2CCC[C@H]2COC)nc(Nc2ccc(Cl)c([N+](=O)[O-])c2)n1 [Example 33]  human 5-HT4(a) (Homo sapiens)           nM   0.059
1  CCCc1cc(N2CC[C@H](NC)C2)nc(Nc2ccc(F)c(C#N)c2)n1 [Example 180]  human 5-HT4(a) (Homo sapiens)           nM  0.0087
2  CCCc1cc(N2CC[C@H](NCc3ccc(N(C)C)cc3)C2)nc(Nc2cccc(C#N)c2)n1 [Example 110]  human 5-HT4(a) (Homo sapiens)           nM   0.018
3  CCCc1cc(N2CCC[C@H]2C)nc(Nc2ccc3c(C)cc(=O)oc3c2)n1 [Example 317]  human 5-HT4(a) (Homo sapiens)           nM    0.14
4  CCCc1cc(N2CC[C@H](NCCN)C2)nc(Nc2cccc(C#N)c2)n1 [Example 220]  human 5-HT4(a) (Homo sapiens)           nM    0.07
5  CCCc1cc(N2CC[C@H](NCCc3ccccc3)C2)nc(Nc2cccc(C#N)c2)n1 [Example 88]  human 5-HT4(a) (Homo sapiens)           nM   0.041

I = CCCCc1cc(N2CC[C@H](NC)C2)nc(Nc2ccc(N)c([N+](=O)[O-])c2)n1 [Example 338]
II = CCCc1cc(N2CC[C@H](NC(C)=O)C2)nc(Nc2ccc(N)c([N+](=O)[O-])c2)n1 [Example 254]
III = CCCc1cc(N2CC[C@H](NC(C)=O)C2)nc(Nc2cccc(SC)c2)n1 [Example 242]
IV = CCCc1cc(N2CC[C@H](NC3CCNCC3)C2)nc(Nc2cccc(C#N)c2)n1 [Example 221]
V = CCCc1cc(N2CCC(NC(C)=O)C2)nc(Nc2ccc(F)c(N)c2)n1 (stereo not drawn) [Example 312]
Q: Please give the order of these compounds when sorted by EC50, largest value leading. Field: ranking. Enter the labels in the order requested.
A: IV, III, V, I, II
(IV: 0.149 nM, III: 0.058 nM, V: 0.023 nM, I: 0.0032 nM, II: 0.0015 nM)
